molecular target: T1, human CD40 on cells (human, UniProt P25942 21-277); assay: flow cytometry, labelled CD40L on CD40-293T cells, antibody at 2.5 ug/ml
T1 construct: also called CD40 receptor on human B cells
T1 sequence (P25942 21-277 limits assumed): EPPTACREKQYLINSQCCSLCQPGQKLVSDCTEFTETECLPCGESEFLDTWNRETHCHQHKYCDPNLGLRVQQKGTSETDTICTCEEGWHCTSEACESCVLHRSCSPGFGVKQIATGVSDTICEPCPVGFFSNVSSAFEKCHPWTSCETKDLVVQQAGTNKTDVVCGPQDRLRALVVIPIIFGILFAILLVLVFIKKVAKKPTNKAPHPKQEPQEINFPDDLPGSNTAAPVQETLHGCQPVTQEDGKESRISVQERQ
The reader will find reported Ligand Binding Inhibition (%) values listed item by item below.

binder	Ligand Binding Inhibition (%)
29H10 (antibody, V domains shown, also called 4877-1) VH: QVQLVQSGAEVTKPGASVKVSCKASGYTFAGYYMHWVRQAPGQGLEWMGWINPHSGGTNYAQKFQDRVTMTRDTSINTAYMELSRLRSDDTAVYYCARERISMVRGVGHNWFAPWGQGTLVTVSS VL: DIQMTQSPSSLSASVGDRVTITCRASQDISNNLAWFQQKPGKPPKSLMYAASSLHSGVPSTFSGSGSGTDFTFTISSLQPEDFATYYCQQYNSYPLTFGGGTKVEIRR	-11
33H9 (antibody, IgG4, V domains shown, also called 4897-1) VH: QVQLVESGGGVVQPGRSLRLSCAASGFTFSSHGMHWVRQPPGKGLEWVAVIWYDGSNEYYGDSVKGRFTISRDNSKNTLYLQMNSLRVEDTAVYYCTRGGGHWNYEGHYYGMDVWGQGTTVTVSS VL: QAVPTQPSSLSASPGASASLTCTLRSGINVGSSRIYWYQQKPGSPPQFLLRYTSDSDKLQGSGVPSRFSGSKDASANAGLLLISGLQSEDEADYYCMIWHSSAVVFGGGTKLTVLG	-3
36F3 (antibody, IgG4, V domains shown, also called 4891-1) VH: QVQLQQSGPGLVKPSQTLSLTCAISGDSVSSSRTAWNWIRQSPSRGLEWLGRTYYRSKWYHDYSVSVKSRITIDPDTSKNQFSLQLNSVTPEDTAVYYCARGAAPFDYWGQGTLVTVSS VL: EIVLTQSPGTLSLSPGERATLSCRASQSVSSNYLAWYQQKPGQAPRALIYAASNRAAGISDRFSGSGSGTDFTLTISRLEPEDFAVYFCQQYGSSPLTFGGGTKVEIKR	1
